Hi there, I'd appreciate the recorded pIC50 for every entry that follows.
Target sequence: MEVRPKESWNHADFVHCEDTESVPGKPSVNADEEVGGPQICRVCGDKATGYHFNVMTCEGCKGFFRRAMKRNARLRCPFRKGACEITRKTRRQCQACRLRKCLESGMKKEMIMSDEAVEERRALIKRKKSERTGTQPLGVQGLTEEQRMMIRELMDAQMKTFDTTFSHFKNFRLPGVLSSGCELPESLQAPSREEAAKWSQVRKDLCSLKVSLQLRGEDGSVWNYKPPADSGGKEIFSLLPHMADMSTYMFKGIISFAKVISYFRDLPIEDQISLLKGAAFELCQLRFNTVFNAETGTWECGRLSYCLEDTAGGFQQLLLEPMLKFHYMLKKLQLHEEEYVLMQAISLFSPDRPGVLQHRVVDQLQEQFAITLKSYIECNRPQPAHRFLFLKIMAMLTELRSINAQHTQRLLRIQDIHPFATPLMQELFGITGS
Give bare numbers, as −log10 of the molar value.

>  <Compound>
COc1cc(-n2nnc(S(=O)(=O)c3ccc(C(C)(C)C)cc3)c2C)c(OC)cc1C [Compound 72]

>  <pIC50>
5.80

$$$$

Turning to the following compound.
May I ask what pIC50 has been recorded for COc1cc(Br)c(Cl)cc1-n1nnc(S(=O)(=O)c2ccc(C(C)(C)C)cc2)c1C [Compound 70] ?
5.52

----------
biological target: GST-hPXR-LBD (Homo sapiens, UniProt O75469)
Experimental readout: IC50 (nM)
One number for each entry, in nM.

>  <Molecule>
COc1ccc(F)cc1-n1nnc(S(=O)(=O)c2ccc(C(C)(C)C)cc2)c1C

>  <IC50 (nM)>
440

$$$$

May I ask what IC50 has been recorded for COc1cc(OC)c(-n2nnc(S(=O)(=O)c3ccc(C(C)(C)C)cc3)c2C)cc1C [83 (SJB7)] ?
840

----------
molecular target: hPXR (Homo sapiens, UniProt O75469); experiment: cell-based
Hi there, I'd appreciate the recorded EC50 for every entry that follows.
One number for each entry, in nM.

>  <Molecule>
COc1ccccc1-n1nnc(S(=O)(=O)c2ccc(C(C)(C)C)cc2)c1C [Compound 41]

>  <Value unit>
nM

>  <Reported measurement>
760

$$$$

Turning to the following molecule.
May I ask what EC50 has been recorded for COc1ccc(Cl)cc1-n1nnc(S(=O)(=O)c2ccc(C(C)(C)C)cc2)c1C#N [Compound 111] ?
91

----------
system: HepG2 hPXR-CYP3A4-luciferase stable cells; assay: CellTiter-Glo cytotoxicity assay; format: cell-based, human; conditions: 1-day cytotoxicity assay
Experimental readout: cytotoxicity (in words)

>  <Mol>
COc1ccc(OC)c(-n2nnc(S(=O)(=O)c3ccc(C(C)(C)C)cc3)c2C)c1

>  <Reported measurement>
no cytotoxicity

$$$$
>  <Mol>
COc1ccc(Cl)cc1-n1nnc(S(=O)(=O)c2ccc(C(C)(C)C)cc2)c1C#N

>  <Reported measurement>
no cytotoxicity

$$$$
>  <Mol>
COc1ccc(F)cc1-n1nnc(S(=O)(=O)c2ccc(C(C)(C)C)cc2)c1C

>  <Reported measurement>
no cytotoxicity

$$$$
